Values compiled from patent US12606537B2.

Target: interaction of the PAS B domains of HIF-2α and HIF-1β (Homo sapiens)
Construct: His6Gb1-TEV-GEFKGL-HIF2α (240-350aa)-G; His6 (N); Gb1 (protein G B1 domain) (N); TEV site (N)
Assay: AlphaScreen protein protein interaction assay
Assay type: biochemical
Conditions: read-out: AlphaScreen IC50; disruption of HIF-2α / HIF-1β (ARNT) PAS B interaction, recombinant proteins 143 nM each
Procedure: For the assessment of functional disruption of the interaction of the PAS B domains of HIF-2α and HIF-1β an AlphaScreen assay was set-up. The assay was performed in 384 well light gray Perkin Elmer microtiter plates in a total volume of 7 μl. […] If donor and acceptor beads get in close proximity to each other caused by interaction of HIF2alpha PAS B with HIF-1ß PAS B domain it results in a luminescence signal at 615 nm after excitation at 680 nm. […]
pIC50: −log10 of the molar value.
measurement.name: pIC50

Query :: # return recorded pIC50 for input CC(Oc1sc(S(C)(=O)=O)c2c1CC(F)(F)[C@H]2O)C(F)F (single isomer, unassigned) [Example 14a]
Result :: > 7.30

* * *

molecular target: HIF2a (240-350)-G (Homo sapiens); construct: The protein, HIF2a (240-350)-G, was prepared by recombinant overexpression; experiment: ITC (isothermal titration calorimetry) binding
Sequence (Q99814 240-350): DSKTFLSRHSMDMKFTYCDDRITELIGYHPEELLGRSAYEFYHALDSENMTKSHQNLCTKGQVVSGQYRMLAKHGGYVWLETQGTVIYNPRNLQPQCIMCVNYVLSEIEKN
measurement.name: Kd

Query :: Supply measured Kd of CS(=O)(=O)c1sc(Oc2ccc(F)c(F)c2)c2c1C(O)C(F)(F)C2 (racemic) [Example 24a] in your reply.
Result :: > 1000 nM

Query :: Respond only with Kd recorded for CS(=O)(=O)c1sc(OC2CCOCC2)c2c1[C@H](O)C(F)(F)C2 [Example 22a]
Result :: 100 to 1000 nM

Query :: Fill in reported Kd for this entry: CS(=O)(=O)c1sc(Oc2cccc(C#N)c2)c2c1[C@H](O)C(F)(F)C2 [Example 31a]
Result :: > 1000 nM

Query :: Determine from records and report Kd for CS(=O)(=O)c1sc(Oc2ccc(F)cc2)c2c1[C@H](O)C(F)(F)C2 [Example 29a]
Result :: > 1000 nM

Query :: Answer with the recorded Kd for the compound listed here: COC1(COc2sc(S(C)(=O)=O)c3c2CC(F)(F)[C@H]3O)CCC1 [Example 16a]
Result :: 100 to 1000 nM

Query :: Answer with reported Kd of CS(=O)(=O)c1sc(Oc2cc(F)cc(Cl)c2)c2c1[C@H](O)C(F)(F)C2 [Example 30a]
Result :: > 1000 nM

Query :: Give the measured Kd for CCC(Oc1sc(S(C)(=O)=O)c2c1CC(F)(F)[C@H]2O)C(F)(F)F (single isomer, unassigned)
Result :: 100 to 1000 nM

* * *

Assign pIC50 to each entry below.
Test system: HIF2α-HIF1β complex
Assay: Cellular mechanistic assay: 786-O HRE-luc2P reporter assay
Format: cell-based, human
Details: read-out: HRE-luc2P reporter assay IC50; 786-O HRE-luc2P cells, 48 h incubation, luciferase luminescence
Description: This reporter assay was designed to monitor binding of the HIF2α-HIF1β complex to specific DNA fragment called hypoxia response element (HRE) in physiologically relevant cell line. […] The assay was performed in 384 well white, opaque microtiterplate with transparent bottom (Greiner Bio-one, Frickenhausen). […] Plates were sealed and luminescence was measured a Tecan Spark 20M microplate reader (end-point measurement with 0.1 second reading time). […]
pIC50: −log10 of the molar value.

Query :: Return pIC50 for the following compound: CC(Oc1sc(S(C)(=O)=O)c2c1CC(F)(F)[C@H]2O)C(F)F (single isomer, unassigned) [Example 14a]
Result :: 6.00 to 7.30

Query :: Return pIC50 (reported value) for this compound: CC(Oc1sc(S(C)(=O)=O)c2c1CC(F)(F)[C@H]2O)C(F)F (single isomer, unassigned) [Example 10a]
Result :: < 6.00

* * *

target: interaction of the PAS B domains of HIF-2α and HIF-1β (Homo sapiens, UniProt Q99814); construct: His6Gb1-TEV-GEFKGL-HIF2α (240-350aa)-G; His6 (N); Gb1 (protein G B1 domain) (N); TEV site (N); assay: AlphaScreen protein protein interaction assay; format: biochemical
measurement.name: IC50

Query :: Report the value of IC50 obtained on interaction of the PAS B domains of HIF-2α and HIF-1β (Homo sapiens, UniProt Q99814) for CCOc1sc(S(C)(=O)=O)c2c1CC(F)(F)[C@H]2O [Example 32a] .
Result :: > 1000 nM

Query :: Answer briefly: IC50 recorded on interaction of the PAS B domains of HIF-2α and HIF-1β (Homo sapiens, UniProt Q99814) for CC(Oc1sc(S(C)(=O)=O)c2c1CC(F)(F)[C@H]2O)C(F)F (single isomer, unassigned) [Example 10a]
Result :: < 50 nM

Query :: Fill in: IC50 on interaction of the PAS B domains of HIF-2α and HIF-1β (Homo sapiens, UniProt Q99814), entry CS(=O)(=O)c1sc(Oc2ccc(F)cc2)c2c1[C@H](O)C(F)(F)C2 [Example 29a]
Result :: > 1000 nM

Query :: With interaction of the PAS B domains of HIF-2α and HIF-1β (Homo sapiens, UniProt Q99814) as the test system, provide measured IC50 for this compound: CS(=O)(=O)c1sc(OCCOC(F)(F)F)c2c1[C@H](O)C(F)(F)C2 [Example 23a]
Result :: < 50 nM

Query :: Name the value of IC50 reported for CCC(Oc1sc(S(C)(=O)=O)c2c1CC(F)(F)[C@H]2O)C(F)(F)F (single isomer, unassigned) when tested on interaction of the PAS B domains of HIF-2α and HIF-1β (Homo sapiens, UniProt Q99814).
Result :: < 50 nM

Query :: # return IC50 for CS(=O)(=O)c1sc(OCC(F)(F)F)c2c1[C@H](O)[C@@H](F)C2 [Example 17a] , test system: interaction of the PAS B domains of HIF-2α and HIF-1β (Homo sapiens, UniProt Q99814)
Result :: < 50 nM

Query :: Report value: IC50, system: interaction of the PAS B domains of HIF-2α and HIF-1β (Homo sapiens, UniProt Q99814), compound: CS(=O)(=O)c1sc(Oc2ccc(F)c(F)c2)c2c1[C@H](O)C(F)(F)C2 [Example 34a]
Result :: 50 to 1000 nM

Query :: // output IC50; input CS(=O)(=O)c1sc(Oc2cc(F)cc(Cl)c2)c2c1[C@H](O)C(F)(F)C2 [Example 30a] ; system interaction of the PAS B domains of HIF-2α and HIF-1β (Homo sapiens, UniProt Q99814)
Result :: > 1000 nM

Query :: Answer with IC50 of COC1(COc2sc(S(C)(=O)=O)c3c2CC(F)(F)[C@H]3O)CCC1 [Example 16a] measured for interaction of the PAS B domains of HIF-2α and HIF-1β (Homo sapiens, UniProt Q99814).
Result :: < 50 nM

Query :: Please report IC50 with interaction of the PAS B domains of HIF-2α and HIF-1β (Homo sapiens, UniProt Q99814) for item CS(=O)(=O)c1sc(Oc2ccc(F)c(F)c2)c2c1C(O)C(F)(F)C2 (racemic) [Example 24a] .
Result :: > 1000 nM

Query :: Provide IC50, tested on interaction of the PAS B domains of HIF-2α and HIF-1β (Homo sapiens, UniProt Q99814), for CS(=O)(=O)c1sc(Oc2cccc(C#N)c2)c2c1[C@H](O)C(F)(F)C2 [Example 31a] .
Result :: > 1000 nM

Query :: Print interaction of the PAS B domains of HIF-2α and HIF-1β (Homo sapiens, UniProt Q99814) IC50 for CS(=O)(=O)c1sc(OC2CCOCC2)c2c1[C@H](O)C(F)(F)C2 [Example 22a] .
Result :: < 50 nM
